ASSAY TARGET: CYP2C19 (Homo sapiens)
Sequence (P33261 whole entry): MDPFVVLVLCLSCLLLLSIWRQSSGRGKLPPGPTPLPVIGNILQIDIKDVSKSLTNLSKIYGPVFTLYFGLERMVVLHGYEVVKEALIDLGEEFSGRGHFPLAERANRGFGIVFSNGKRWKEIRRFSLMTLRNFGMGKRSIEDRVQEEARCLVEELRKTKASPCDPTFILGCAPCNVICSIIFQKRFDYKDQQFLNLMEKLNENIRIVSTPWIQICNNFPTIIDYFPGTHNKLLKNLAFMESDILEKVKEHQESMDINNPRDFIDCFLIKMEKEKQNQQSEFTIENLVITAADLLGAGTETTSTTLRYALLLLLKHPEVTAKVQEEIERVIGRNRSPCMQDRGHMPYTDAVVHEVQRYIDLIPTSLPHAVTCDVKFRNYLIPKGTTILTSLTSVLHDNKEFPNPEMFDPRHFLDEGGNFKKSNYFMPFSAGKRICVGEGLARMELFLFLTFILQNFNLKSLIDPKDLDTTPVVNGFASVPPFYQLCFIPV
ASSAY INFO: CYP2C19 inhibition (fluorescent substrate CEC)
Format: in vitro ADME
TEST CONTEXT: read-out: Cyp IC50 (μM) 2C19

[
  {
    "CHEMICAL STRUCTURE": "CCCS(=O)(=O)Nc1ccc(F)c(C(=O)c2c[nH]c3ncc(-c4ccc5cccnc5c4)cc23)c1F",
    "IC50": "< 5 µM"
  },
  {
    "CHEMICAL STRUCTURE": "O=C(c1c(F)ccc(NS(=O)(=O)c2cc(F)ccc2F)c1F)c1c[nH]c2ncc(-c3cnc(NC4CC4)nc3)cc12",
    "IC50": "> 10 µM"
  },
  {
    "CHEMICAL STRUCTURE": "CCCS(=O)(=O)Nc1ccc(F)c(C(=O)c2c[nH]c3ncc(-c4csc(-n5ccnc5C)n4)cc23)c1F",
    "IC50": "> 10 µM"
  },
  {
    "CHEMICAL STRUCTURE": "CNC(=O)n1ncc2cc(-c3cnc4[nH]cc(C(=O)c5c(F)ccc(NS(=O)(=O)c6cc(F)ccc6F)c5F)c4c3)ccc21",
    "IC50": "< 5 µM"
  },
  {
    "CHEMICAL STRUCTURE": "CCCS(=O)(=O)Nc1ccc(F)c(C(=O)c2c[nH]c3ncc(-c4ccc5cncnc5c4)cc23)c1F",
    "IC50": "> 10 µM"
  },
  {
    "CHEMICAL STRUCTURE": "CCCS(=O)(=O)Nc1ccc(F)c(C(=O)c2c[nH]c3ncc(-c4ccc5[nH]ccc5c4)cc23)c1F",
    "IC50": "< 5 µM"
  },
  {
    "CHEMICAL STRUCTURE": "CC(=O)n1ncc2cc(-c3cnc4[nH]cc(C(=O)c5c(F)ccc(NS(=O)(=O)c6cc(F)ccc6F)c5F)c4c3)ccc21",
    "IC50": "< 5 µM"
  },
  {
    "CHEMICAL STRUCTURE": "CCCS(=O)(=O)Nc1ccc(F)c(C(=O)c2c[nH]c3ncc(-c4ccc5[nH]ncc5c4)cc23)c1F",
    "IC50": "< 5 µM"
  },
  {
    "CHEMICAL STRUCTURE": "COc1ccc(-c2cnc3[nH]cc(C(=O)c4c(F)ccc(NS(=O)(=O)c5cc(F)ccc5F)c4F)c3c2)cn1",
    "IC50": "> 10 µM"
  },
  {
    "CHEMICAL STRUCTURE": "COc1ncc(-c2cnc3[nH]cc(C(=O)c4cccc(NS(=O)(=O)c5ccccc5F)c4F)c3c2)cn1",
    "IC50": "> 10 µM"
  },
  {
    "CHEMICAL STRUCTURE": "CCCS(=O)(=O)Nc1ccc(F)c(C(=O)c2c[nH]c3ncc(-c4ccc5c(cnn5S(C)(=O)=O)c4)cc23)c1F",
    "IC50": "> 10 µM"
  },
  {
    "CHEMICAL STRUCTURE": "CC(=O)n1cc(C(=O)c2c(F)ccc(NS(=O)(=O)c3cc(F)ccc3F)c2F)c2cc(-c3ccc4c(cnn4C(C)=O)c3)cnc21",
    "IC50": "< 5 µM"
  },
  {
    "CHEMICAL STRUCTURE": "CCCS(=O)(=O)Nc1ccc(F)c(C(=O)c2c[nH]c3ncc(-c4ccc5c(cnn5C(C)=O)c4)cc23)c1F",
    "IC50": "< 5 µM"
  },
  {
    "CHEMICAL STRUCTURE": "CCCS(=O)(=O)Nc1ccc(F)c(C(=O)c2c[nH]c3ncc(-c4cccc5nn(C)cc45)cc23)c1F",
    "IC50": "> 10 µM"
  },
  {
    "CHEMICAL STRUCTURE": "Cc1ncc(-c2cnc3[nH]cc(C(=O)c4c(F)ccc(NS(=O)(=O)c5cc(F)ccc5F)c4F)c3c2)cn1",
    "IC50": "> 10 µM"
  },
  {
    "CHEMICAL STRUCTURE": "O=C(c1c(F)ccc(NS(=O)(=O)c2cc(F)ccc2F)c1F)c1c[nH]c2ncc(-c3ccc4[nH]ncc4c3)cc12",
    "IC50": "5 to 10 µM"
  },
  {
    "CHEMICAL STRUCTURE": "CCCS(=O)(=O)Nc1ccc(F)c(C(=O)c2c[nH]c3ncc(-c4ccc5[nH]cc(C)c5c4)cc23)c1F",
    "IC50": "< 5 µM"
  },
  {
    "CHEMICAL STRUCTURE": "O=C(c1c(F)ccc(NS(=O)(=O)c2ccc(C(F)(F)F)cc2)c1F)c1c[nH]c2ncc(-c3cnn(C4CCNCC4)c3)cc12",
    "IC50": "> 10 µM"
  }
]
